The origin of these recorded values is patent US20060049052A1.

Quick reference: pI of the listed items.
# measurement.setup: indirect UV detection CE, bare fused silica capillary, 15 kV, T=25, UV 214 nm, BGEs of varied pH

compound	pI
O=S(=O)(O)OC(CN1CCOCC1)CN1CCOCC1	5.8
CCCN(CCC)CC(CN(CCC)CCC)OS(=O)(=O)O	8.7
O=S(=O)(O)OC(CN1CCCCC1)CN1CCCCC1	8.9

* * *

# assay.explanation: Conductivity, pH and buffering capacity of 50 mM solutions of ampholytic buffers
# Type: physicochemical
# measurement.setup: 50 mM solution
Quick reference: Conductivity of the listed items.

compound	Conductivity (mS/m)
N[C@@H](Cc1c[nH]cn1)C(=O)O [HIS, histidine, reference compound]	3.5
CC[N+](CC)(CCCC(=O)[O-])CCCC(=O)O	18.4
CN(C)CC(CN(C)C)OS(=O)(=O)O	25.8
O=S(=O)(O)OC(CN1CCOCC1)CN1CCOCC1	7.3
O=S(=O)(O)OC(CN1CCCCC1)CN1CCCCC1	18.1
